Just for reference, ChEMBL document CHEMBL3612048 is where these values come from.

Consider the following compounds and their measured pIC50 readings.
# Test system: A549
# experimental.details: Cytotoxicity against human A549 cells assessed as induction of cell death incubated for 2 days by MTT assay
# Assay type: functional, cell-based
# measurement.conditions: A549, 48 h
By convention, pIC50 is the negative base-10 log of a molar concentration.

See these solved cases before continuing.
smiles.record: CC(=O)O[C@@H]1[C@@H](O)[C@H](O[C@H]2[C@@H](O)[C@@H](C)O[C@@H](O[C@H]3CC[C@@]4(C)[C@@H](CC[C@]5(C)[C@@H]4C=C[C@]46OC[C@@]7(CCC(C)(C)C[C@H]74)[C@@H](O)C[C@]65C)[C@]3(C)CO)[C@@H]2O)O[C@H](CO)[C@H]1O
pIC50: 4.42

smiles.record: CC(=O)O[C@H]1[C@H](O[C@H]2[C@@H](O)[C@@H](C)O[C@@H](O[C@H]3CC[C@@]4(C)[C@@H](CC[C@]5(C)[C@@H]4C=C[C@]46OC[C@@]7(CCC(C)(C)C[C@H]74)[C@@H](O)C[C@]65C)[C@]3(C)CO)[C@@H]2O)O[C@H](CO)[C@@H](O)[C@@H]1O
pIC50: 4.41

Note: attention shifts to another entry.
// pIC50 value for C[C@H]1O[C@@H](O[C@H]2CC[C@@]3(C)[C@@H](CC[C@]4(C)[C@@H]3C=C[C@]35OC[C@@]6(CCC(C)(C)C[C@H]63)C(=O)C[C@]54C)[C@]2(C)CO)[C@H](O)[C@@H](O[C@@H]2O[C@H](CO)[C@@H](O)[C@H](O)[C@H]2O)[C@H]1O : 4.47
